Tested on: RXRa DBDmut IVT, anti-RXR (DBD mutation: RXRa K156A/R161A, NR concentration 90 nM)
Assay: PBM binding z-score (relative to random genomic background probes); higher = stronger binding; sequences stand for … in GC…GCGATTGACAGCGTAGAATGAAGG
Note to self: values exactly at 0.4 are MET. So PBM binding z-score at or above 0.4 is MET, below is NOT MET.

Is reported PBM binding z-score greater than or equal to 0.4 here: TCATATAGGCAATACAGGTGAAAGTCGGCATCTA MET

Evaluate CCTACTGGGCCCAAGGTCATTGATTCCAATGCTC : PBM binding z-score at minimum 0.4? NOT MET

Exam item: decide whether the reported PBM binding z-score for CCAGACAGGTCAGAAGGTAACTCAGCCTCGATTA is at least 0.4. MET

Hi team, for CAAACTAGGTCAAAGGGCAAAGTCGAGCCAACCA , is the recorded PBM binding z-score at or above 0.4? MET

State whether the measured PBM binding z-score reaches 0.4, counting equality as reaching it, for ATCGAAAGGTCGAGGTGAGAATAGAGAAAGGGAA MET

State whether the measured PBM binding z-score reaches 0.4, counting equality as reaching it, for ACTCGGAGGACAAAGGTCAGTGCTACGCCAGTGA MET

Hello, I need to know if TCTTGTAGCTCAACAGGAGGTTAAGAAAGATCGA has measured PBM binding z-score not below 0.4. Thanks! NOT MET

# check: PBM binding z-score of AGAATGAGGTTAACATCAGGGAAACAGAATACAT is greater than or equal to 0.4 MET

Is it the case that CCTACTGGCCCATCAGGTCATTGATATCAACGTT has PBM binding z-score reaching or exceeding 0.4? NOT MET

Could you please find out whether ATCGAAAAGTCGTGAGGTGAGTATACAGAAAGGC has PBM binding z-score that meets 0.4 or exceeds it? NOT MET

Does the reported PBM binding z-score for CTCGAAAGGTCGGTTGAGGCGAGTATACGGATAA fall at or above the 0.4 mark? MET

Would you say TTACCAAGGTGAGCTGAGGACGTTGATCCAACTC shows PBM binding z-score at minimum 0.4? NOT MET

Say whether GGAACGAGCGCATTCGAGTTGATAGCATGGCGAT shows PBM binding z-score of 0.4 or more. NOT MET

Has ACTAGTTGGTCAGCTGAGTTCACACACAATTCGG a recorded PBM binding z-score greater than or equal to 0.4? MET

Is PBM binding z-score for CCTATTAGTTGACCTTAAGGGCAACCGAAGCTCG at or above 0.4? MET

Given the entry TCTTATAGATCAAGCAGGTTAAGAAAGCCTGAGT , answer whether its PBM binding z-score meets or surpasses 0.4. MET

Could you tell me if the measured PBM binding z-score of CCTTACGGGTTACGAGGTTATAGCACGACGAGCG reaches 0.4 or more? NOT MET
